The values you see were collected from ChEMBL document CHEMBL4513216.

# experimental.details: Toxicity liver stage against HepG2, at 10uM
# Format: cell-based
# Design: test concentration 10 uM, cell line HepG2-A16-CD81EGFP
# experimental.parameters: human, HepG2-A16-CD81EGFP cells; read-out: INHIBITION
experimental.endpoint: cytotoxicity at 10 µM (%)
Numeric only. Scale: %

Here is how some compounds turned out for cytotoxicity at 10 µM.
Cn1ncc2c1C(COCC1CC1)CN(Cc1ccc(F)cc1)C2 (configuration not stated) : 1.23
O=C1CSC(c2ccc(F)c(Cl)c2)c2c(n(C3CCOCC3)[nH]c2=O)N1 (configuration not stated) : 3.4
Cn1cc(CC(CNC(=O)Nc2cccc(Cl)c2)C(N)=O)cn1 (configuration not stated) : -15.5
CN(C)c1nc2c(c(N(C)Cc3n[nH]c4c3CCCCC4)n1)CCNC2 : 2.95
CC(C)Nc1cc(N2CCN(Cc3ccccc3)C(CCO)C2)ncn1 (configuration not stated) : 7.9

Query string: Name the recorded cytotoxicity at 10 µM for O=C(c1ccoc1)N1CCC2(CCCN(c3ncc(F)cn3)C2)C1 (configuration not stated) .
Result string: -98.3

Query string: Input COc1ccccc1Oc1cncc(C2CCCN(C)C2)n1 (configuration not stated)
Result string: -3.8

Query string: Please answer likewise for CCOCCNc1nc(-c2ccncc2)nc2c1CCNCC2
Result string: -136

Query string: Another: O=C(O)C1CCN(C(=O)CCn2ccc3cc(Br)ccc32)CC1
Result string: 15.5

Query string: // query: CCS(=O)(=O)N1CCN(CC2CC2)c2ncccc2C1
Result string: 7.97

Query string: Same for Cc1cc(C2CCCN(C(=O)c3cnn(C)c3)C2)ccn1 (configuration not stated)
Result string: -2.83

Query string: Could you do the same for Cc1ccc(N2CCO[C@H]3CN(C(=O)c4cccc(C)n4)C[C@H]32)nn1 , please?
Result string: 4.94

---

# experimental.details: Toxicity liver stage against HepG2, at 10uM
# Assay type: cell-based
# Design: test concentration 10 uM, cell line HepG2-A16-CD81EGFP
# experimental.parameters: human, HepG2-A16-CD81EGFP cells; read-out: INHIBITION
experimental.endpoint: cytotoxicity at 10 µM (%)
Please give a number only; it is taken to be in %.

Solved entries:
CN(C)CCN1CCCC12CCCN(Cc1ccco1)C2 (centres undefined) : 10.3
COc1ccc(CNCc2c(C)nn(C)c2N2CCOCC2)cc1 : -1.32
CC(C)CCN1CCCC(Cn2cc(CCO)nn2)C1 (centres undefined) : -6.02
Cc1cc(OCC(=O)NS(=O)(=O)c2cccnc2)ccc1Cl : 0.544
Cc1nn(C)c(N(C)C)c1CNCc1cccc(Cl)c1 : -8.27
CN(Cc1cnn(C)c1)C(=O)NCCc1ccc2c(c1)OCO2 : -12.4
NC(=O)NC(=O)CCN(Cc1ccccc1)CC1CCOCC1 : -1.86
N#CCCN(CCC#N)C(=O)CN(C1CC1)C1CCc2ccccc21 (centres undefined) : 5.92
COc1ccccc1NC(=O)NCCCn1nc2ccccn2c1=O : -18
Cc1ccccc1-c1csc2c(=O)[nH]c(N3CCCC(C(=O)O)C3)nc12 (centres undefined) : -3.16

Query string: Please report the recorded cytotoxicity at 10 µM for O=C(CC1CCCO1)NCc1ccccc1Cn1cncn1 (centres undefined) .
Result string: -2.55

---

# experimental.details: Toxicity liver stage against HepG2, at 10uM
# Format: cell-based
# Design: test concentration 10 uM, cell line HepG2-A16-CD81EGFP
# experimental.parameters: human, HepG2-A16-CD81EGFP cells; read-out: INHIBITION
experimental.endpoint: cytotoxicity at 10 µM (%)
Field format: number, assumed %, no unit text.

Would you please look over these solved cases?
COc1ccccc1OCCc1cc(C2CCNC2)n[nH]1 (stereo not drawn) : -17.1
COCCN(Cc1ccc(C)o1)C(=O)Nc1ncc(C)s1 : 10
O=C(NCc1ccco1)[C@H]1COC[C@H]2CN(Cc3ccccn3)C[C@H]21 : -72.4
C[C@@H]1C[C@H](C(F)(F)F)n2nc(C3CCN(C(=O)C(C)(C)C)CC3)cc2N1 : -32.8

Query string: # lookup: cytotoxicity at 10 µM of C1CN(CCN2CCOCC2)CCN1
Result string: -11.5

Query string: Do the same for Cc1ccc(C(=O)N2CC(=O)N(Cc3cccs3)CC(O)C2)cc1 (stereo not drawn) please
Result string: -5.46

Query string: // next record CC(C)c1cc(C(=O)N2CCC3(CCc4ccccc4C(=O)N3)C2)no1 (stereo not drawn)
Result string: 6.83

Query string: Ok, now Cc1csc2c(=O)n(CCN3CCC(c4ccccc4)CC3)cnc12
Result string: 1.2

Query string: Please do the same for CC(O)CC(C)(C)CNS(=O)(=O)c1cccc(Cl)c1C#N (stereo not drawn) as well.
Result string: -6.03

---

# experimental.details: Toxicity liver stage against HepG2, at 10uM
# Assay type: cell-based
# Set-up: test concentration 10 uM, cell line HepG2-A16-CD81EGFP
# experimental.parameters: human, HepG2-A16-CD81EGFP cells; read-out: INHIBITION
experimental.endpoint: cytotoxicity at 10 µM (%)
Return type: number; implicit unit %.

// known answers, use as guide
CN1CCCC1c1ccnc2nccn12 (centres undefined) : 6.84
C[C@@H]1CN(Cc2cccnc2)C[C@]1(C)O : -6.1
O=C(c1cn2cc(Cl)cnc2n1)N1CCOCC(O)(CN2CCCC2)C1 (centres undefined) : -8.42

Query string: What measured cytotoxicity at 10 µM goes with O=C(c1ncncc1Cl)N1CCN(c2ccc(Cl)cc2)CC1 ?
Result string: -2.72

---

# experimental.details: Toxicity liver stage against HepG2, at 10uM
# Type: cell-based
# Design: test concentration 10 uM, cell line HepG2-A16-CD81EGFP
# experimental.parameters: human, HepG2-A16-CD81EGFP cells; read-out: INHIBITION
cytotoxicity at 10 µM: recorded values

Example results:
CC(C)(C)n1nnnc1CN(CCc1ccccc1)Cc1ccccc1 : 4.91%
Cc1ccc(CN2CCC3(CC2)C(=O)N(CCO)CCN3C)o1 : -1.63%
O=C(O)c1ccccc1-n1cnc(CN2CCc3ccccc32)c1 : 11.7%
CC(NC(=O)NC1CCN(Cc2ccncc2)CC1)c1ccccc1F (stereo unspecified) : -17.8%
Cc1cnc(CN(C)C2CCN(CC(=O)Nc3c(C)n[nH]c3C)C2)o1 (stereo unspecified) : -6.38%
O=C(NC1CCCC1)N1CCCCC1c1nc(C2CC2)no1 (stereo unspecified) : -9.52%
CCN1CCCC(CNC(=O)C2(c3cccc(Cl)c3)CC2)C1 (stereo unspecified) : -2.77%
Cc1oc(C(C)C)cc1C(=O)N1C[C@@H]2CC[C@H]1CN(c1ncccn1)C2 : -126%

Query string: What does the record list as cytotoxicity at 10 µM for CCNC(=O)[C@@H]1C[C@@H](N)CN1C(=O)CCc1ccc(C)c(C)c1 ?
Result string: 2.72%

Query string: Can you handle COc1cccc(-c2nc(C)c(C(=O)NC(CO)CCSC)s2)c1 (stereo unspecified) next?
Result string: -7.71%

Query string: Param item: O=C(CCc1cnn(-c2ccccc2)c1)N1CCCC(n2cccn2)C1 (stereo unspecified)
Result string: 2.1%

Query string: One more compound: COc1cccc2c1OCC(NCCc1cnn(-c3ccccc3)c1)C2 (stereo unspecified)
Result string: -0.6%

Query string: Request: O=C(CC1CCCC1)N1CCC(c2cc3ncccc3c(O)n2)CC1
Result string: -24.7%

---

# experimental.details: Toxicity liver stage against HepG2, at 10uM
# Assay type: cell-based
# Set-up: test concentration 10 uM, cell line HepG2-A16-CD81EGFP
# experimental.parameters: human, HepG2-A16-CD81EGFP cells; read-out: INHIBITION
experimental.endpoint: cytotoxicity at 10 µM
Don't forget the unit after the number, please.

Record excerpt, results attached:
O=c1[nH]c2nc(N3CCSCC3)ncc2c(=O)n1-c1cccc(F)c1 : -1.82%
CCn1nc(C)c2c1cnn2CC(=O)NC(C)c1cccc(OC)c1 (stereo not given) : 25.8%
Clc1cccc2c3c([nH]c12)CCN(Cc1cc2n(n1)CCCNC2)C3 : -17.1%
CCOC(=O)N1CCN(C(=O)c2sc(-c3ccncc3)nc2C)CC1 : -3.3%
CCn1cc2c(n1)C(COCC1CC1)CN(C(=O)c1ccsc1)C2 (stereo not given) : 18.6%
CC(C)=CCS(=O)(=O)Cc1noc(CC(C)C)n1 : -4.59%
CCCc1n[nH]c(C2CN(C(=O)c3cccc4[nH]ncc34)CCO2)n1 (stereo not given) : -2.87%
COc1ccc(-c2cc(N)on2)cc1OC : -9.85%

Query string: Which cytotoxicity at 10 µM is listed for COc1ccc(OC)c(C(C)Nc2ncnc3c2NC(=O)CN3)c1 (stereo not given) ?
Result string: 10.6%

Query string: Then what about the molecule CC1CCc2nc(NS(=O)(=O)c3cnn(C)c3)sc2C1 (stereo not given) ?
Result string: -0.842%
